# Test system: soybean (Glycine max)
# test summary: Test C preemergence
# Type: in vivo
# recorded conditions: Glycine max, pre-emergence; 31 g ai/ha, preemergence; scale 0 to 100; read-out: Plant response rating, Soybean
test readout: plant injury at 31 g/ha (%)
Return type: number; implicit unit %.

Previously resolved entries follow.
| chemical smiles | tested system | u | plant injury at 31 g/ha |
| --- | --- | --- | --- |
| Fc1cnc(Oc2c(Br)cccc2Oc2ncc(Cl)cn2)nc1 | soybean (Glycine max) | % | 60 |
| Clc1cnc(Oc2cccc(Br)c2Oc2ncc(Cl)cn2)nc1 | soybean (Glycine max) | % | 50 |
| Fc1ccc(F)c(Oc2ncc(Cl)cn2)c1Oc1ncc(Cl)cn1 | soybean (Glycine max) | % | 20 |
| Fc1cccc(Oc2ncc(C(F)(F)F)cn2)c1Oc1ncc(Cl)cn1 | soybean (Glycine max) | % | 50 |

Shift focus to the following entry.
Problem: Using the record for FC(F)c1cccc(Oc2ncc(Cl)cn2)c1Oc1ncc(Cl)cn1 , report its plant injury at 31 g/ha.
Result: 40

Entry source: patent US20170190671A1
